Test system: Staphylococcus aureus
Experiment description: Antibacterial activity against Staphylococcus aureus 7323 after 24 to 96 hrs by well microplate assay
Assay type: functional
Where a SMILES comes first, the peptide text is derived from it. [ ]: non-standard residue; d: D form. The star is where a group is joined. Phe(4-NH2) = Nc1ccc(C[C@H](N)C(=O)O)cc1; X1 = O=C(C1C2CC3CC(C2)CC1C3)*; Orn = NCCC[C@H](N)C(=O)O; Piv = CC(C)(C)C(=O)*
Property: MIC
Please don't drop the unit; write it after the number.

Record CC(C)C[C@@H]1NC(=O)[C@H](CCCN)NC(=O)[C@H](C(C)C)NC(=O)[C@@H]2CCCN2C(=O)[C@H](Cc2ccccc2)NC(=O)[C@H](CC(C)C)NC(=O)[C@H](CCCN)NC(=O)[C@H](C(C)C)NC(=O)[C@@H]2CCCN2C(=O)[C@H](Cc2ccc(NC(=O)C(C)(C)C)cc2)NC1=O (cyclo(FPV[Orn]L[Phe(4-NH2)](Piv)PV[Orn]L)) . Reported MIC: 8 µg/mL

Record CC(C)C[C@@H]1NC(=O)[C@H](CCCN)NC(=O)[C@H](C(C)C)NC(=O)[C@@H]2CCCN2C(=O)[C@H](Cc2ccccc2)NC(=O)[C@H](CC(C)C)NC(=O)[C@H](CCCN)NC(=O)[C@H](C(C)C)NC(=O)[C@@H]2CCCN2C(=O)[C@H](Cc2ccc(NC(=O)C3C4CC5CC(C4)CC3C5)cc2)NC1=O (some centres not stated) (cyclo(FPV[Orn]L[Phe(4-NH2)](X1)PV[Orn]L)) . Reported MIC: 8 µg/mL

----------
Tested on: Enterococcus faecalis
Experiment description: Antibacterial activity against Enterococcus faecalis 1131 after 24 to 96 hrs by well microplate assay
Assay type: functional
Where a SMILES comes first, the peptide text is derived from it. [ ]: non-standard residue; d: D form. The star is where a group is joined. Phe(4-NO2) = N[C@@H](Cc1ccc([N+](=O)[O-])cc1)C(=O)O; Phe(4-NH2) = Nc1ccc(C[C@H](N)C(=O)O)cc1; Isobutyryl = CC(C)C(=O)*; Orn = NCCC[C@H](N)C(=O)O
Property: MIC (µg/mL)
Please state the figure in µg/mL; there is no need to write the unit.

Record CC(C)C[C@@H]1NC(=O)[C@H](CCCN)NC(=O)[C@H](C(C)C)NC(=O)[C@@H]2CCCN2C(=O)[C@H](Cc2ccccc2)NC(=O)[C@H](CC(C)C)NC(=O)[C@H](CCCN)NC(=O)[C@H](C(C)C)NC(=O)[C@@H]2CCCN2C(=O)[C@H](Cc2ccc(NC(=O)C(C)C)cc2)NC1=O (cyclo(FPV[Orn]L[Phe(4-NH2)](Isobutyryl)PV[Orn]L)) . Reported MIC: 16

Record CC(C)C[C@@H]1NC(=O)[C@H](CCCN)NC(=O)[C@H](C(C)C)NC(=O)[C@@H]2CCCN2C(=O)[C@H](Cc2ccccc2)NC(=O)[C@H](CC(C)C)NC(=O)[C@H](CCCN)NC(=O)[C@H](C(C)C)NC(=O)[C@@H]2CCCN2C(=O)[C@H](Cc2ccc([N+](=O)[O-])cc2)NC1=O (cyclo(FPV[Orn]L[Phe(4-NO2)]PV[Orn]L)) . Reported MIC: 32

----------
System: Enterococcus faecalis
Experiment description: Antibacterial activity against Enterococcus faecalis 1131 after 24 to 96 hrs by well microplate assay
Format: functional
Where a SMILES comes first, the peptide text is derived from it. [ ]: non-standard residue; d: D form. The star is where a group is joined. Phe(4-NH2) = Nc1ccc(C[C@H](N)C(=O)O)cc1; X1 = O=C(C1C2CC3CC(C2)CC1C3)*; Orn = NCCC[C@H](N)C(=O)O
Property: MIC (µg/mL)
Please state the figure in µg/mL; there is no need to write the unit.

Record CC(=O)Nc1ccc(C[C@@H]2NC(=O)[C@H](CC(C)C)NC(=O)[C@H](CCCN)NC(=O)[C@H](C(C)C)NC(=O)[C@@H]3CCCN3C(=O)[C@H](Cc3ccccc3)NC(=O)[C@H](CC(C)C)NC(=O)[C@H](CCCN)NC(=O)[C@H](C(C)C)NC(=O)[C@@H]3CCCN3C2=O)cc1 (cyclo(FPV[Orn]L[Phe(4-NH2)](Ac)PV[Orn]L)) . Reported MIC: 64

Record CC(C)C[C@@H]1NC(=O)[C@H](CCCN)NC(=O)[C@H](C(C)C)NC(=O)[C@@H]2CCCN2C(=O)[C@H](Cc2ccccc2)NC(=O)[C@H](CC(C)C)NC(=O)[C@H](CCCN)NC(=O)[C@H](C(C)C)NC(=O)[C@@H]2CCCN2C(=O)[C@H](Cc2ccc(NC(=O)C3C4CC5CC(C4)CC3C5)cc2)NC1=O (stereo partly drawn) (cyclo(FPV[Orn]L[Phe(4-NH2)](X1)PV[Orn]L)) . Reported MIC: 64
